System: KM12 colon
measurement_description: NCI tumour cell line growth inhibition, 48 h
experimental_endpoint: TGI (µM)
Numbers only here, please. The scale is µM.

Input O=C1C(CN2CCCC2)CCCC1CN1CCCC1 (centres undefined) . Output TGI: 39.8

Input O=C(CC(=O)Nc1ccccc1Cl)NNC(Sc1ccccc1)c1cc(N=Nc2ccc(Br)cc2)ccc1O (centres undefined) . Output TGI: 5.04

Input COc1cccc2c1C(=O)c1c(O)c3c(c(O)c1C2=O)C[C@@](O)(/C(C)=N\O)C[C@@H]3OC1CC(N)C(O)C(C)O1 (some centres undefined) . Output TGI: 15.8

Others:
Input COC(=O)C(N)CCCC(N)C(=O)NC(C)C(=O)NC(CCC(=O)NCCCNc1ccc([N+](=O)[O-])c2[nH]c3ccccc3c(=O)c12)C(N)=O (centres undefined) . Output TGI: 19.1

---

Tested on: SK-MEL-2 melanoma
measurement_description: NCI tumour cell line growth inhibition, 48 h
experimental_endpoint: TGI (µM)
Numbers only here, please. The scale is µM.

Observed TGI, SK-MEL-2 melanoma, Nc1nc(Nc2ccc3c(c2)CCC(N2CCCC2)CC3)nn1-c1cc2c(nn1)-c1ccccc1CCC2 (stereo not given) : 2.53

Observed TGI, SK-MEL-2 melanoma, COc1cc(C(CC(OC)OC)=C(C#N)C#N)cc(OC)c1OC : 49.4

Observed TGI, SK-MEL-2 melanoma, CC12CCC(O)CC1CCC1C2CCC2(C)C(C3=CC(=O)OC3)CCC12 (stereo not given) : 29.8

---

TGI listing for selected compounds.
System: PC-3 prostate
measurement_description: NCI tumour cell line growth inhibition, 48 h
Numbers only here, please. The scale is µM.

Worked examples follow.
Input COc1ccc2sc3c(NCCCNCCO)nc4ccccc4c3c(=O)c2c1 . Output TGI: 3.1

Input O=C(CC(=O)c1ccccc1NC1=Cc2ccccc2C(=O)C1=O)C(=O)NC1=C(Cl)C(=O)c2ccccc2C1=O . Output TGI: 6.69

Input O=Cc1cc(O)c(O)c(/C=N/n2c3ccccc3c3ccccc32)c1 . Output TGI: 28.7

Input CC(C)(CN1CCCCC1)C(=O)/C=C/c1c(Cl)cccc1Cl . Output TGI: 3.46

Alright, here's another compound for you.
Input COC(=O)[C@]12CC[C@@H](C)[C@H](C)[C@@H]1C1=CC[C@@H]3[C@@]4(C)C=C(O)C(=O)C(C)=C4CC[C@@]3(C)[C@]1(C)CC2 . Output TGI: 18.4

---

System: HOP-92 NSCLC
measurement_description: NCI tumour cell line growth inhibition, 48 h; in the data active = GI50 below about 0.43 µM; inactive = the rest
Give your call using only these classes: active, inactive

Example cases with answers are listed next.
Outcome? COc1ccc(-c2c(C#N)c(N)nc3c2CCCc2ccc(F)cc2-3)cc1OC inactive

Outcome? CN1CCN(c2cc(Nc3cc(C4CC4)[nH]n3)nc(Nc3ccc(CC(=O)NCc4cccc(F)c4)cc3)n2)CC1 active

Outcome? COC1CCC(n2c([C@@H]3CCCC(=O)N3c3ccc(F)c(F)c3)nc3cc(-c4c(C)noc4C)ccc32)CC1 (stereo not given in full) inactive

Outcome? CC(C)(C)c1nnc2n(c1=O)N=CC(c1ccc(Br)cc1)S2 (stereo not given) inactive

Outcome? C1C[OH+]CC[OH+]CC[OH+]CC[OH+]CC[OH+]CC[OH+]1.[Cl-].[Ta+5] inactive

Outcome? O=C(Nc1ccccc1F)c1ccc(NC2=C(Cl)C(=O)N(Cc3ccccc3)C2=O)cc1 inactive

Outcome? Cc1[nH]nc(C(=O)Nc2n[nH]c3ccccc23)c1[N+](=O)[O-] inactive

Outcome? CN(C)CCCC(=O)Nc1ccc(Cn2nnc3c2C(=O)c2nnn(Cc4ccc(NC(=O)CCCN(C)C)cc4)c2C3=O)cc1 inactive

Others:
Outcome? CC12CCC(O)CC1CCC1C2CCC2(C)C(C3=CC(=O)OC3)CCC12 (stereo not given) inactive

Outcome? CC1(C)CC[C@]2(C(=O)O)CC[C@]3(C)[C@H](CC[C@@H]4[C@@]5(C)CCC(=O)C(C)(C)[C@@H]5CC[C@]43C)[C@H]2[C@H]1OC(=O)C(F)(F)F inactive
